System: K562
Assay: NCI tumour cell line growth inhibition, 48 h
The source made the active and inactive calls. No stated cut-off is given here; in the data, active = GI50 up to about 1.1 µM and inactive = higher.
Write down the outcome that applies. Available outcomes: True (active), False (inactive)

Consider the following illustrative entries.
NCCCSCC(=O)O : False
O=C(O)c1nn(-c2ccc(Cl)cc2)c2c1C(=O)c1ccccc1C2=O : False
CCC(C)C1NC(=O)C(NC(=O)c2c3nc4c(C(=O)NC5C(=O)NC(C(C)CC)C(=O)N6CCCC6C(=O)N(C)CC(=O)N(C)C(C(C)C)C(=O)OC5C)ccc(C)c4oc-3c(C)c(=O)c2O)C(C)OC(=O)C(C(C)C)N(C)C(=O)CN(C)C(=O)C2CCCN2C1=O (stereo not given) : True
Cc1nc2c(c(=O)[nH]1)S/C(=C(/C#N)c1nc3ccccc3[nH]1)N2c1ccccc1 : False
CCOC(=O)CCC(NC(=O)c1ccc(CNc2nc3ccccc3nc2C(=O)OCC)cc1)C(=O)OCC (stereo not given) : False
O=C(O)C1C2c3ccccc3C(c3ccccc32)C1C(=O)NCC1CC1 (stereo not given) : False
O=c1[nH]c(=O)n(C2OC3COC2C3O)cc1F (stereo not given) : False
CC1(C(=O)O)CCC(C(=O)O)C(C)(C)O1 (stereo not given) : False
CC(=O)O/N=C/c1ncccc1OC(C)=O : False
O=C(CCc1cccc(O)c1)NCCc1ccc(O)cc1 : False

Could you please tell me the result logged for O=C1Nc2cc([N+](=O)[O-])c(Br)cc2C1=O in this assay?
False

What did the test return for CCCCCCCCCCCCC1NC(=N)NC2(CCCO2)C1C(=O)OC (stereo not given) ?
False

I would be grateful if you could indicate the recorded call for CCOC(=O)N1[C@@H]2CCC[C@@H]2C(=O)[C@@H]2CCC[C@@H]21 .
False

Kindly provide the recorded test outcome for the following molecule: CCC(Oc1ccc(OC)c2c1C(=O)CCC2)C(=O)O (stereo not given)
False

Check the results log: what was the call for CC(=O)Oc1ccc2cc(-c3ccc(OC(C)=O)c(OC(C)=O)c3)c(=O)oc2c1 ?
False

Identify the outcome logged in this assay for the molecule shown: C=C(C=O)CCCC(C)[C@@H]1CCC23CC12CCC1[C@@]2(C)CCC(OC(C)=O)C(C)(C)C2CC(OC2OC(COC(C)=O)C(O)C(O)C2O)[C@]13C (stereo not given in full)
False

Name the outcome recorded for Cc1nc2cc(C(F)(F)F)ccc2[nH]c1=O in the assay.
False

Record lookup: outcome of this test for CCCCCCCCCC(=O)OCC1OC(n2cc(F)c(=O)[nH]c2=O)C(N)C(OC(=O)CCCCCCCCC)C1O (stereo not given) ?
False

Identify the outcome logged in this assay for the molecule shown: CC(=O)OC1COC(Nc2ccc(C(C)=O)cc2)C(OC(C)=O)C1OC(C)=O (stereo not given)
False

Tell me the recorded outcome of this test for COc1ccc(-c2cc(-c3ccccc3)nc(/N=C\c3ccccc3)n2)c(O)c1 .
False

// outcome(item) with item = CC1CCC(=O)C(C(=O)CC2CC(=O)N(C)C(=O)C2)C1 (stereo not given)
False

Hi team, can someone confirm the assay call for CC1(C)C2CCC1(C)C(NC(=O)CCN1CCOCC1)C2 (stereo not given) ?
False
